measurement_notes: NCI Yeast Anticancer Drug Screen. Data for the cln2 rad14 strain (AID 165);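 note: 0% = growth equal to vehicle treated cultures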
measurement_parameters: S. cerevisiae cln2 rad14 strain, at 50.0 µM (retest, dose inferred, filed as 5.0), hits give high values
This is part of a sample that, as a whole, favours compounds with a hit. Of some 79,000 tested, about 15% had one in any assay.
measured_property: growth inhibition (%)
Write the value in % as a bare number.

CCC[CH2][Pb]([CH2]CCC)([CH2]CCC)[n]1ccnc1; 99
Cc1ccc(C(=O)C2C(c3ccccc3)N2C2CCCCC2)cc1 (stereo not drawn); 96
ClCC[Se](Cl)(Cl)c1ccccc1; 44
Nc1cccc([As]=S)c1 (stereo not drawn); 98
O=[N+]([O-])/C=C\c1ccc2c(c1)OCO2; 99

-- ask State its growth inhibition for this compound: "O=C(c1ccccc1)c1cc(CN(CCCl)CCCl)c(O)cc1O"
-- reply -1

-- ask In one line, give reported growth inhibition of the entry "Cc1cccc(C)c1N=C(N)N[N+](=O)[O-]" .
-- reply 98

-- ask State its growth inhibition: "NC(=O)c1cc([N+](=O)[O-])c(Cl)c([N+](=O)[O-])c1Cl"
-- reply 100

-- ask Output growth inhibition of "CO[C@@]12[C@@H]3N[C@@H]3CN1C1=C(C(=O)C(N(C)c3ccc(O)cc3)=C(C)C1=O)[C@@H]2COC(N)=O"
-- reply 62
